Test system: c-Abl (mouse);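 further: 11-residue human phosphosite peptides and single-mutation variants displayed on the E. coli surface, counted by deep sequencing, each peptide's frequency after selection divided by its frequency in the unselected input library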;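 further: frequency after pTyr selection over input frequency; kinase dosed for 20-30% of maximal phosphorylation in three min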
Assay Procedure: phosphorylation enrichment, bacterial display (enrichment ratio); higher = better substrate or ligand; peptides without Tyr show the background
Tick Criterion met if phosphorylation enrichment is 0.8 or greater. Tick Criterion not met if phosphorylation enrichment is less than 0.8.

{"Macromolecule Sequence": "KGIQLYDTPYE [SHB_Y297]", "Measurement Target": "c-Abl (mouse)", "Category": "Criterion met"}
{"Macromolecule Sequence": "LLVVLYKYRCY [PSEN1_Y154]", "Measurement Target": "c-Abl (mouse)", "Category": "Criterion met"}
{"Macromolecule Sequence": "ALEHKYWALGQ [MAP1A_Y1555_Q1553H]", "Measurement Target": "c-Abl (mouse)", "Category": "Criterion not met"}
{"Macromolecule Sequence": "KGELCYMHSRV [ABCD1_Y281_R280C]", "Measurement Target": "c-Abl (mouse)", "Category": "Criterion not met"}
{"Macromolecule Sequence": "APTSGYREFVH [IL4R_Y575_Q576R]", "Measurement Target": "c-Abl (mouse)", "Category": "Criterion not met"}
{"Macromolecule Sequence": "KFDLMYAKLAF [TUBA1A_Y399_R402L]", "Measurement Target": "c-Abl (mouse)", "Category": "Criterion not met"}
{"Macromolecule Sequence": "GEFFRYLAEVA [YWHAG_Y133_D129E_YF]", "Measurement Target": "c-Abl (mouse)", "Category": "Criterion not met"}
{"Macromolecule Sequence": "HAEERYGKELV [PSTPIP1_Y53_Q48H]", "Measurement Target": "c-Abl (mouse)", "Category": "Criterion not met"}
{"Macromolecule Sequence": "FFCKFYNKSED [RYR1_Y4864_R4861C]", "Measurement Target": "c-Abl (mouse)", "Category": "Criterion met"}
{"Macromolecule Sequence": "KVGRVYLFLQP [ITGA2B_Y360_E355K]", "Measurement Target": "c-Abl (mouse)", "Category": "Criterion not met"}
{"Macromolecule Sequence": "KFSNQYKATIG [RAB7A_Y37]", "Measurement Target": "c-Abl (mouse)", "Category": "Criterion not met"}
{"Macromolecule Sequence": "GESQGYDIMEP [MSH2_Y863]", "Measurement Target": "c-Abl (mouse)", "Category": "Criterion not met"}
{"Macromolecule Sequence": "EHIEFYELDKK [PMM2_Y145_R141H]", "Measurement Target": "c-Abl (mouse)", "Category": "Criterion not met"}
{"Macromolecule Sequence": "ISPPVYLTNEW [NRK_Y885]", "Measurement Target": "c-Abl (mouse)", "Category": "Criterion met"}
{"Macromolecule Sequence": "FSTDCYRVGGH [NTRK2_Y707_Y706C_YF]", "Measurement Target": "c-Abl (mouse)", "Category": "Criterion met"}
{"Macromolecule Sequence": "CEHRGSLYLAI [TEK_Y897_Y897S]", "Measurement Target": "c-Abl (mouse)", "Category": "Criterion met"}
{"Macromolecule Sequence": "LWQSIYNLEAE [TNNT2_Y251]", "Measurement Target": "c-Abl (mouse)", "Category": "Criterion met"}
{"Macromolecule Sequence": "LGLDECLDKLK [FMNL2_Y352_Y352C]", "Measurement Target": "c-Abl (mouse)", "Category": "Criterion met"}
{"Macromolecule Sequence": "RLLRGYDQLAF [HLA-C_Y137_S140L_YF]", "Measurement Target": "c-Abl (mouse)", "Category": "Criterion met"}
{"Macromolecule Sequence": "CCNHPYRINGA [CHD7_Y1256_L1257R]", "Measurement Target": "c-Abl (mouse)", "Category": "Criterion not met"}
{"Macromolecule Sequence": "ADEEFYEIIAA [FEStide_F_2014]", "Measurement Target": "c-Abl (mouse)", "Category": "Criterion met"}
{"Macromolecule Sequence": "QSPQLYKQMCI [DARS1_Y253]", "Measurement Target": "c-Abl (mouse)", "Category": "Criterion met"}
{"Macromolecule Sequence": "DLKFHYDNTAG [KDR_Y1214_P1210L]", "Measurement Target": "c-Abl (mouse)", "Category": "Criterion not met"}
{"Macromolecule Sequence": "DFFDLYGGEKK [PTPN11_Y66_F71K_YF]", "Measurement Target": "c-Abl (mouse)", "Category": "Criterion met"}
{"Macromolecule Sequence": "DPAFGYEDFTR [SESN2_Y323_T320A]", "Measurement Target": "c-Abl (mouse)", "Category": "Criterion not met"}
{"Macromolecule Sequence": "DIPIRYSIMGV [CDH4_Y205_T208M]", "Measurement Target": "c-Abl (mouse)", "Category": "Criterion not met"}
